# Tested on: human APOE RNA
# assayComment: Activity in APOE C57BL/6NTac-Apoeem7250 knock-in mice, single ICV bolus, 20 weeks (Example 13)
# Type: in vivo
# runParameters: cortex; single ICV bolus 300 μg; 20 weeks post treatment; normalized to mouse Ppia
Strand notation (5' to 3'): a small letter for the sugar, then the base; units joined by * are phosphorothioate-linked, units joined directly phosphodiester-linked; [ ] holds rarer units or linkages, { } end groups; capitals alone tell only the bases. [ms] = mesyl phosphoramidate linkage; e = 2'-O-(2-methoxyethyl) (MOE); k = constrained ethyl (cEt); [5mC] = 5-methylcytosine; d = 2'-deoxy (DNA)
readoutName: APOE RNA (% control) Cortex
Kindly answer with a numeric value in % control, unit omitted.

Would you mind telling me what APOE RNA (% control) Cortex value was observed for 1757581 (eT*eTeGeGkT*dG*dA*dA*dT*d[5mC]*dT*dT*dT*dA*dT*eTeAeA*eA*e[5mC]; antisense) [Compound 1757581] ?
87

Same for 1757571 (eA*e[5mC]eTeT*eG*kG*dT*dG[ms]dA[ms]dA[ms]dT*d[5mC]*dT*dT*dT*dA[ms]eT*eT*eA*eA; antisense) [Compound 1757571]
53

Item: Aes^mCeoTeoTesGesGksTdsGdzAdzAdzTds^mCdsTdsTdsTdsAdzTksTksAesAe (eA*e[5mC]eTeT*eG*kG*dT*dG[ms]dA[ms]dA[ms]dT*d[5mC]*dT*dT*dT*dA[ms]kT*kT*eA*eA) [Compound No. 1757576]
32

Follow-up entry: 1778108 (eA*e[5mC]eTeTeG*kG*dT*dG[ms]dA[ms]dA*dT*d[5mC]*dT*dT*dT*dA[ms]eT*eT*eA*eA; antisense) [Compound 1778108]
70

Likewise for 1757568 (eA*e[5mC]eTeTeG*dG*dT*dG*dA*dA*dT*d[5mC]*dT*dT*dT*kAkTeT*eA*eA; antisense) [Compound 1757568] ?
73
